biological target: PTGER4 (EP4) (Homo sapiens (Human)); assay: cell-based
Sequence (P35408 whole entry): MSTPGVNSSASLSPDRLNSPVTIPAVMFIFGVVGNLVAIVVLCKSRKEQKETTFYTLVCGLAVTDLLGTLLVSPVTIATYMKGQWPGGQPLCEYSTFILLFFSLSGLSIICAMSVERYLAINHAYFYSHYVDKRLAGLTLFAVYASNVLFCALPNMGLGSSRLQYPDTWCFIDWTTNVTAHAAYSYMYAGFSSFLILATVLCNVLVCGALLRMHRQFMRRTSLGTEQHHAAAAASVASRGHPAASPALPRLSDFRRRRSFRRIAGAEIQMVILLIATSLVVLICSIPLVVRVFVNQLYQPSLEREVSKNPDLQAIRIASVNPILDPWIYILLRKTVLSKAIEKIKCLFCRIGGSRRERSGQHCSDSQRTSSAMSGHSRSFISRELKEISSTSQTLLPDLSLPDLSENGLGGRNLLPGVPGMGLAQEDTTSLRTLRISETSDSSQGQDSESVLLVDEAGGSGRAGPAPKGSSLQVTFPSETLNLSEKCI
RECORDED_ENDPOINT: IC50 (nM)
Give a bare numeral; the unit nM is implied.

For the molecule CCOc1cc(-c2cc(NCCc3cc(F)c4sccc4c3)ncn2)ccc1C(=O)NC , report IC50. 197

Given O=C(O)c1ccc(-c2cc(NCCc3ccc4c(c3)CCCO4)ncn2)cc1OC1CCC1 , respond with its IC50. 444

Query IC50 for CCCc1cc(-c2cc(NCCc3cc(F)c4sccc4c3)ncn2)ccc1C(=O)NC 104

Identify the reported IC50 for the following entry. COc1cc2c(cc1CCNc1cc(-c3ccc(C(=O)O)c(OC(C)C)c3)ncn1)OCCO2 497

For O=C(O)c1ccc(-c2cc(NCCc3cc(F)c4sccc4c3)ncn2)cc1O , write its IC50. 582

Answer with the recorded IC50 for the molecule listed here: CCOc1c(C(=O)O)ccc(-c2cc(NCCc3cc(F)c4sccc4c3)ncn2)c1F 385

Give me measured IC50, please, for this molecule: CCOc1cc(-c2cc(NCCc3cc4ccsc4cc3C)ncn2)sc1C(=O)O 25

Give IC50 for the following molecule: CCCc1cc(-c2cc(NCCc3c(OC)cc4ccccc4c3C)ncn2)ccc1CC(=O)O 13

Note down IC50 recorded for CCOc1cc(-c2cc(NCCc3ccc4sccc4c3C)ncn2)cc(F)c1CC(=O)O 195

Consider the molecule CC(C)Cc1cc(-c2cc(NCCc3cc(F)c4sccc4c3)ncn2)ccc1C(=O)O . State its measured IC50. 48

Could you please provide reported IC50 for CCOc1cc(-c2cc(NCCc3cc(F)c4scc(Cl)c4c3)ncn2)ccc1CC(=O)O ? Thanks! 903

Identify the reported IC50 for the following entry. O=C(O)c1coc2cc(-c3cc(NCCc4cc(F)c5sccc5c4)ncn3)ccc12 190

Please give the documented IC50 of COC(=O)c1sc(-c2cc(NCCc3ccc4ccccc4c3C)ncn2)cc1O 571

In one line, give reported IC50 of the entry COc1cc(-c2cc(NCCc3cc(F)c4sccc4c3)ncn2)ccc1-c1cc(O)no1 . 80

For CCOc1cc(-c2cc(NCCc3cc(Cl)c4c(c3)OCCO4)ncn2)sc1C(=O)O , write its IC50. 22

Note IC50 for the molecule shown: Cc1c(CCNc2cc(-c3cc4c(C(=O)O)cccc4[nH]3)ncn2)ccc2ccccc12 109

Output measured IC50 for this item: COC(=O)c1ccc(-c2cc(NCCc3cc(F)c4sccc4c3)ncn2)cc1OC1CC1 99

Give IC50 for the following molecule: CCOc1cc(-c2cc(NCCc3ccc4ccccc4c3Cl)ncn2)sc1C(=O)O 26

State its IC50 for this molecule: CCOc1cc(-c2cc(NCCc3cc(F)c4sccc4c3)ncn2)sc1C(=O)O 6

Give the reported value of IC50 for this record: CCOc1cc(-c2cc(NCCc3cc4ccoc4cc3OC)ncn2)ccc1C(=O)O 618

Give the value of IC50 reported for the following: C#Cc1cc2ccccc2cc1CCNc1cc(-c2ccc(C(=O)O)c(OCC)c2)ncn1 53

Give me measured IC50, please, for this molecule: CCOc1cc(-c2cc(NCCc3cc(Cl)c4sccc4c3)ncn2)ccc1C(=O)O 138

// Input: O=C(O)c1ccc(-c2cc(NCCc3ccc4c(c3)OCC4)ncn2)cc1OC1CCC1 . Output its IC50 only. 603

Give the reported IC50 for this molecule. CCOc1cc(-c2cc(NCCc3ccc4ccsc4c3C)ncn2)ccc1C(=O)O 420

Give IC50 for the following molecule: CCOc1cc(-c2cc(NCCc3ccc4scc(C)c4c3)ncn2)ccc1OCC(=O)O 171

Fill in IC50 for record COc1cc2occc2cc1CCNc1cc(-c2ccc(C(=O)O)c(OC3CCC3)c2)ncn1 176

Write down IC50 measured for item CCCc1cc(-c2cc(NCCc3cc(C)c4sccc4c3)ncn2)ccc1C(=O)O 242

For the molecule CCOc1cc(-c2cc(NCCc3cc(F)c4sccc4c3)ncn2)ccc1C(=O)O , report IC50. 116
